# experimental-system: Recombinant human IL-2 (human, UniProt P60568 21-153)
# assay-notes: cell-based or functional assay
assay-endpoint: EC50 of IL-2-induced pSTAT5a,b in NK-92 cells with 100 nM antibody (pM)

binder | reported-measurement
XPA.92.042 (antibody, V domains shown, Tested as purified full-length human IgG) VH: EVQLVQSGTEVKKAGDSLKISCKGSGYNFDTYWIGWVRQMPGRGLEWMGTIYPADSDTRYSPSFQGQVTMSADKSISTAYLQWGSLRASDTAMYYCARFSSSAYDIWGQGTMVTVSS VL: SYELTQPPSVSVSPGQTARITCSGDALPRKFAYWYQQKSGQAPVLVIYQDTKRPSGIPERFSGSSSGTTVTLTISDVQAEDDADYYCQSADRSDSYVFGAGTKLTVLG | 1700
